// data source = paper PMC10388297

# system: hMcl-1 (Homo sapiens, UniProt Q07820)
# Construct: His tag (N); made in house; host or cells: E. coli BL21 (DE3) gold pLysS
# Sequence (Q07820 172-323): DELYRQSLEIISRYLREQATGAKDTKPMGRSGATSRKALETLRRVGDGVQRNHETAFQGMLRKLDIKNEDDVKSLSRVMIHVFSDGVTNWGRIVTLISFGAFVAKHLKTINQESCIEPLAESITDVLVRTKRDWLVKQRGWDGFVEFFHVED
# assay.remarks: Isothermal titration calorimetry
# Format: binding
# run.parameters: 25 °C, pH 7.5, 1% DMSO; read-out: Kd by isothermal titration calorimetry
endpoint: Kd (µM)

[P] COc1ccc(C(C)C)cc1S(=O)(=O)NC(CC(=O)O)C(=O)N1C(C(=O)NC(Cc2c[nH]c3ccccc23)C(N)=O)CC2CCCCC21 (stereo not drawn) [Compound 60]
[Q] COc1ccc2[nH]cc(CC(NC(=O)C3CC4CCCCC4N3C(=O)C(CC(=O)O)NS(=O)(=O)c3cc(C(C)C)c(C)cc3OC)C(N)=O)c2c1 (stereo not drawn) [Compound 59]
Lookup: Would you mind telling me which has the lower recorded Kd between P and Q ? Indicate your choice by writing its label.
Found: P
